# tested.target: T1, biotinylated full-length HER2 (human, UniProt P04626 23-652, limits assumed, biotinylated (site not stated))
# T1 construct: Immobilised on the SPR chip; also called bio-HER2; Human Epidermal Growth Factor Receptor 2
# protocol: SPR multi-trace, biotinylated HER2 on chip, analyte 0.617-50 nM, global 1:1 Langmuir fit
The binders listed here are annotated with their koff.
Form entry: value (s⁻¹) — number only.

Take a look at these entries with their results.
{"binder": "DARPin08-GSGSC-DTPA (designed binder, maleimide-DTPA coupled to the C-terminal Cys of the GSGSC tag, Charge variant of DARPin06; His-TEV tag cleaved off; possible N-terminal GS not included; also called construct 8) DLGTQLLRAAESGQLDEVRELLKAGADVNAQDEYGLTPLYLATAHGHLEIVTVLLEAGADVNAQDAIGFTPLHLAAFIGHLEIATVLLEAGADVNAQDKFGKTPADIAAGAGNEDIAEVLQKAAGSGSC", "koff [s⁻¹]": "8.82e-05"}
{"binder": "DARPin16-GSGSC-DTPA (designed binder, maleimide-DTPA coupled to the C-terminal Cys of the GSGSC tag, Charge variant derived from DARPin06; His-TEV tag cleaved off; possible N-terminal GS not included; also called construct 16) DLGTQLLEAAESGQLDEVRELLKAGADVNAQDEYGLTPLYLATAHGHLEIVTVLLEAGADVNAQDAIGFTPLHLAAFIGHLEIATVLLEAGADVNAQDKFGTTPADIAAGAGNEDIAEVLQKAAGSGSC", "koff [s⁻¹]": 0.00026}
{"binder": "DARPin15-GSGSC-DTPA (designed binder, maleimide-DTPA coupled to the C-terminal Cys of the GSGSC tag, Charge variant derived from DARPin06; His-TEV tag cleaved off; possible N-terminal GS not included; also called construct 15) DLGTQLLRAAESGQLDEVRELLKAGADVNAQDEYGLTPLYLATAHGHLEIVTVLLEAGADVNAQDAIGFTPLHLAAFIGHLEIATVLLEAGADVNAQDNFGTTPADIAAGAGNEDIAEVLQQAAGSGSC", "koff [s⁻¹]": 0.000214}

Task item: For DARPin13-GSGSC-DTPA (designed binder, maleimide-DTPA coupled to the C-terminal Cys of the GSGSC tag, Charge variant derived from DARPin06; His-TEV tag cleaved off; possible N-terminal GS not included; also called construct 13) DLGTQLLQAAESGQLDEVHDLLQAGADVNAQDEYGLTPLYLATAHGHLEIVTVLLEAGADVNAQDAIGFTPLHLAAFIGHLEIATVLLEAGADVNAQDKFGKTPADIAAGAGNEDIAEVLQKAAGSGSC , what is its reported koff?
Reply: 0.000138

Task item: Further, for DARPin06-GSGSC-DTPA (designed binder, maleimide-DTPA coupled to the C-terminal Cys of the GSGSC tag, Parent; also called construct 6; DTPA coupled parental DARPin06) DLGKKLLEAARAGQDDEVRELLKAGADVNAKDEYGLTPLYLATAHGHLEIVEVLLKAGADVNAVDAIGFTPLHLAAFIGHLEIAEVLLKAGADVNAQDKFGKTPADIAAGAGNEDIAEVLQKAAGSGSC ?
Reply: 0.000141

Task item: Further, for DARPin14-GSGSC-DTPA (designed binder, maleimide-DTPA coupled to the C-terminal Cys of the GSGSC tag, Charge variant derived from DARPin06; His-TEV tag cleaved off; possible N-terminal GS not included; also called construct 14) DLGTQLLEAAESGQLDEVRELLQAGADVNAQDEYGLTPLYLATAHGHLEIVTVLLEAGADVNAQDAIGFTPLHLAAFIGHLEIATVLLEAGADVNAQDKFGKTPADIAAGAGNEDIAEVLQKAAGSGSC ?
Reply: 0.000121
